Please provide measured IC50 for the entries that follow.
- measurement_target: Cathepsin K (Homo sapiens (Human))
- Sequence (P43235 115-329, species assumed): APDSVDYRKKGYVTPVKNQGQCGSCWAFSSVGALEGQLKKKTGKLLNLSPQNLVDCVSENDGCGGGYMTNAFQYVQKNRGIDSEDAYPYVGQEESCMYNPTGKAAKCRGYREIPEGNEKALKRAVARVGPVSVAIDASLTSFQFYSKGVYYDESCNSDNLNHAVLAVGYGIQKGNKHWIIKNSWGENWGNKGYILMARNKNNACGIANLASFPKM
- assay_summary: Cathepsin K inhibition assay
- Type: biochemical
- condition_label: Table 4; read-out: IC50 (nM) CatK
Answers are plain numbers, in nM.

Example molecules with recorded IC50:
INSERT INTO measurements (molecule, assay_endpoint, reported_measurement) VALUES
  ('NCCCCC(NC(=O)c1ccccn1)C(=O)COc1c(F)ccc(F)c1F (centres unmarked) [Compound 50a]', 'IC50', 1000),
  ('NCCCCC(NC(=O)C1CCCC1)C(=O)COc1c(F)cccc1F (centres unmarked) [Compound 2a]', 'IC50', 2290),
  ('NCCCCC(NC(=O)c1ccc(F)nc1)C(=O)COc1ccon1 (centres unmarked) [Compound 55a]', 'IC50', 1000);

Here's the next entry for you.
Returns the measured IC50 for the input molecule. Input: COC(C)(C)C(=O)NC(CCCCN)C(=O)COc1c(F)ccc(F)c1F (centres unmarked) [Compound 47a]
9000
